Recorded values, source paper PMC12281475.

molecular target: CDK5_p35NCK (Homo sapiens, UniProt Q00535); construct: purchased Reaction Biology; assay: Radiometric protein kinase assay (33PanQinase), CDK5_p35NCK; type: biochemical; conditions: slope of the IC50 fit
Sequence (Q00535 whole entry): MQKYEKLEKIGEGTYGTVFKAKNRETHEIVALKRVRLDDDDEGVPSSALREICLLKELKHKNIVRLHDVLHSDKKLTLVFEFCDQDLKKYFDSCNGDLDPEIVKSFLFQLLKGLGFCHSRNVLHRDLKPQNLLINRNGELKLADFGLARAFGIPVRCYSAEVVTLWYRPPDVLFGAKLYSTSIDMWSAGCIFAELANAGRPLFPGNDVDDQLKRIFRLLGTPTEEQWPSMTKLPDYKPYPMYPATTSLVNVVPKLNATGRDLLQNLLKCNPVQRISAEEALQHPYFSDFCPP
Sequence (Q15078 whole entry partner): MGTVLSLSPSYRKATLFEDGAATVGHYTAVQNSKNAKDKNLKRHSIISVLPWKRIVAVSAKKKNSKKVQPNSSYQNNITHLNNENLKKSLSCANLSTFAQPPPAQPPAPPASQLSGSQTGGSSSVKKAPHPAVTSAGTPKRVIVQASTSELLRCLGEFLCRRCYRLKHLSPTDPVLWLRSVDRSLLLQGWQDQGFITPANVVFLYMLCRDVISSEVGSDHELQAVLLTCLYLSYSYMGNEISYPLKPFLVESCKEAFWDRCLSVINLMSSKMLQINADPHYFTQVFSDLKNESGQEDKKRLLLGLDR
result_type: Hill Slope
Give the value as a plain number.

Query: Hill Slope lookup needed for Cc1c(Br)c(Br)c2c3c1nc(N1CCNCC1)n3CCC2.Cl [SEL120-34A, reference compound] , thanks.
Result: -0.92

Query: Hill Slope; subject: Cn1ncc2cc(-c3cnc(N)c(Cl)c3N3CCC4(CCNC4=O)CC3)ccc21 [CCT251921]
Result: -0.4

Query: Entry Cc1n[nH]c2ncc(C(=O)N3CCC[C@H]3c3ccc(Cl)cc3)cc12 [MSC2530818] : reported Hill Slope = ?
Result: -1.04

Query: May I ask what Hill Slope has been recorded for CN1CCN(C(=O)c2ccc3cc(CCNc4ncnc5ccc(C#N)cc45)ccc3c2)CC1 [Senexin B, reference compound] ?
Result: -0.43

Query: Given Cn1cc(-c2ccc(-c3cncc(Cl)c3N3CCC4(CCNC4=O)CC3)cc2)cn1 [CCT251545] , state its recorded Hill Slope.
Result: -1.62

###

pIC50: −log10 of the molar value.
System: CDK7_CycH_MAT1 (Homo sapiens, UniProt P50613) | Read-out: pIC50
Sequence (P50613 whole entry): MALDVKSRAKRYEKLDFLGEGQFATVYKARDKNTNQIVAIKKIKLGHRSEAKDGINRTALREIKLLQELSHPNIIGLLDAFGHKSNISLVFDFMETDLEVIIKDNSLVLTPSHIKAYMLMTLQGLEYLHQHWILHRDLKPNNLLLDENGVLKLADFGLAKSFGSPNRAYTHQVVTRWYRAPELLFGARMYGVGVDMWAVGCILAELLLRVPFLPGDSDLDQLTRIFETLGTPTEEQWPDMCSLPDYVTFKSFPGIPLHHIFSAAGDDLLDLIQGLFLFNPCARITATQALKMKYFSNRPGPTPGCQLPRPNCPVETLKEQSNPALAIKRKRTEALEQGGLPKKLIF
Sequence (P51946 whole entry partner): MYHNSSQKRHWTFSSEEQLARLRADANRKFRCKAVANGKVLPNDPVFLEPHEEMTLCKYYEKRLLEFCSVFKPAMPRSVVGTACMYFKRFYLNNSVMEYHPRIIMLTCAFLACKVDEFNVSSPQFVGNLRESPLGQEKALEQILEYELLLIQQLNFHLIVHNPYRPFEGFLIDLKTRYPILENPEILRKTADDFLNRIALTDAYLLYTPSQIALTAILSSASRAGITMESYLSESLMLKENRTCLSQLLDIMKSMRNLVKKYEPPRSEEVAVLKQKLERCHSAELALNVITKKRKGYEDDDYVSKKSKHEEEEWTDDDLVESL
Sequence (P51948 whole entry partner): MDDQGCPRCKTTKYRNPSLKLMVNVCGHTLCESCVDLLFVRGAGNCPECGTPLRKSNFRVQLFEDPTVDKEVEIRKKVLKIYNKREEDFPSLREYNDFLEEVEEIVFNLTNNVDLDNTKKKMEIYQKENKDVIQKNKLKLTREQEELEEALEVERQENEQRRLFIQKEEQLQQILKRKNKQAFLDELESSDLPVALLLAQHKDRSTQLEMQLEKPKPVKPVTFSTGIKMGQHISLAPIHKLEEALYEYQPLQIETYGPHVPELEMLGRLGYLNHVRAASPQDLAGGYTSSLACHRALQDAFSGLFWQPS

Query: Could you tell me which pIC50 is on file for Cn1ncc2cc(-c3cnc(N)c(Cl)c3N3CCC4(CCNC4=O)CC3)ccc21 ?
Result: < 5.00

Query: Item under review: Cn1cc(-c2ccc(-c3cncc(Cl)c3N3CCC4(CCNC4=O)CC3)cc2)cn1 . Reported pIC50?
Result: < 5.00

Query: Sample CN1CCN(C(=O)c2ccc3cc(CCNc4ncnc5ccc(C#N)cc45)ccc3c2)CC1 [Senexin B, reference compound] — what was its pIC50?
Result: < 5.00

Query: Need pIC50, item Cc1n[nH]c2ncc(C(=O)N3CCC[C@H]3c3ccc(Cl)cc3)cc12
Result: < 5.00

###

molecular target: CDK4_CycD1 (Homo sapiens, UniProt P11802); construct: purchased Reaction Biology; assay: Radiometric protein kinase assay (33PanQinase), CDK4_CycD1; assay type: biochemical; conditions: slope of the IC50 fit
Sequence (P11802 whole entry): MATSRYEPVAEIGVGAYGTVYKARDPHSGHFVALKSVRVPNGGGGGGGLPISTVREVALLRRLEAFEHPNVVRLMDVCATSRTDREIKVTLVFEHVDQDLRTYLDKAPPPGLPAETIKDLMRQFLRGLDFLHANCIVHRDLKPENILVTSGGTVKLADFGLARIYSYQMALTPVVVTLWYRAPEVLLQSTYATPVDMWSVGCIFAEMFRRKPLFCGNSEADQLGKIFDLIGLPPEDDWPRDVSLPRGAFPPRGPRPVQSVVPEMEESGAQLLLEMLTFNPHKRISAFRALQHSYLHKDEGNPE
Sequence (P24385 whole entry partner): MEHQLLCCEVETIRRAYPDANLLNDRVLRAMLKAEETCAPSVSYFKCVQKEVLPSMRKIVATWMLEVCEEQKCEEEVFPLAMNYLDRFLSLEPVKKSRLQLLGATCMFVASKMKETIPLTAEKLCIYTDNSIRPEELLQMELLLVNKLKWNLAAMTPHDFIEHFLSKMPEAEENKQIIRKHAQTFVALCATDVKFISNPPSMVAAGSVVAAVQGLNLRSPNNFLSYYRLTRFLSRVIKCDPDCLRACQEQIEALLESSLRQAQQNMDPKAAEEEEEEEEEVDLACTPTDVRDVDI
// 0 (no) strictly below -0.4 in Hill Slope; 1 (yes) otherwise

Query: Is Hill Slope for Cn1cc(-c2ccc(-c3cncc(Cl)c3N3CCC4(CCNC4=O)CC3)cc2)cn1 at or above -0.4?
Result: 1 (yes)

Query: Textbook exercise: given the entry CN1CCN(C(=O)c2ccc3cc(CCNc4ncnc5ccc(C#N)cc45)ccc3c2)CC1 [Senexin B, reference compound] , state whether its Hill Slope is greater than or equal to -0.4.
Result: 0 (no)

Query: Check if Hill Slope >= -0.4 (inclusive). Item: Cn1ncc2cc(-c3cnc(N)c(Cl)c3N3CCC4(CCNC4=O)CC3)ccc21
Result: 1 (yes)

Query: Check the entry Cc1c(Br)c(Br)c2c3c1nc(N1CCNCC1)n3CCC2.Cl [SEL120-34A, reference compound] : does Hill Slope equal or exceed -0.4?
Result: 0 (no)

Query: Please tell me: is the compound Cc1n[nH]c2ncc(C(=O)N3CCC[C@H]3c3ccc(Cl)cc3)cc12 at or over -0.4 in terms of Hill Slope?
Result: 0 (no)

###

target: CDK8_CycC (Homo sapiens, UniProt P49336); construct: purchased Reaction Biology; assay: Radiometric protein kinase assay (33PanQinase), CDK8_CycC; type: biochemical; details: highest assay concentration 1.00E-05 M; read-out: IC50
Sequence (P49336 whole entry): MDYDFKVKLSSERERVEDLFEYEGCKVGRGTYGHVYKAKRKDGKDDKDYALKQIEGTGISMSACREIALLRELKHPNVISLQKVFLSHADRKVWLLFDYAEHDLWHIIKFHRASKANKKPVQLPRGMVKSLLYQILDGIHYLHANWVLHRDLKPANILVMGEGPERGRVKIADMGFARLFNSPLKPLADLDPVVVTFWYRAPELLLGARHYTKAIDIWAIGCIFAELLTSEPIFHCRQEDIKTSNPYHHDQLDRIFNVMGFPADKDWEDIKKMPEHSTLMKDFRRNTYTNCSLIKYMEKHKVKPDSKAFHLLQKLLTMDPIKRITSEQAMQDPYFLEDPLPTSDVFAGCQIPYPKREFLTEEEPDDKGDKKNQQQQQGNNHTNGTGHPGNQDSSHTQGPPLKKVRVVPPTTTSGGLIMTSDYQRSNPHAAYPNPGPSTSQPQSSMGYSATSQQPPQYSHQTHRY
Sequence (P24863 whole entry partner): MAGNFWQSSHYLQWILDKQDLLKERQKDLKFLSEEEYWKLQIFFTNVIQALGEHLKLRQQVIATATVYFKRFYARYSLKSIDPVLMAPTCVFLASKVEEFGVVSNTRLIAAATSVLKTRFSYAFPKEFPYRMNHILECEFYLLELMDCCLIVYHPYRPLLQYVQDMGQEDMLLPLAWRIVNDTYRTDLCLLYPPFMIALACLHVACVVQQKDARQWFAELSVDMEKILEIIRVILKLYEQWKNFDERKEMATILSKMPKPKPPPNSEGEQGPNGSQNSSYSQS
Task for the reader: assign each of the following compounds its reported IC50.
Lab note: write values as number then unit, every time.

Query: Which measured IC50 value corresponds to Cc1c(Br)c(Br)c2c3c1nc(N1CCNCC1)n3CCC2.Cl [SEL120-34A, reference compound] ?
Result: 193 nM

Query: Please report the recorded IC50 for CN1CCN(C(=O)c2ccc3cc(CCNc4ncnc5ccc(C#N)cc45)ccc3c2)CC1 [Senexin B, reference compound] .
Result: 165 nM

###

Please respond with reported IC50 for every item in the list.
target: CDK2_CycE1 (Homo sapiens, UniProt P24941); construct: purchased Reaction Biology; assay: Radiometric protein kinase assay (33PanQinase), CDK2_CycE1; type: biochemical; conditions: highest assay concentration 1.00E-05 M; read-out: IC50

Query: Using the record for Cn1ncc2cc(-c3cnc(N)c(Cl)c3N3CCC4(CCNC4=O)CC3)ccc21 [CCT251921] , report its IC50.
Result: > 10 µM

Query: // returns reported IC50 for input Cn1cc(-c2ccc(-c3cncc(Cl)c3N3CCC4(CCNC4=O)CC3)cc2)cn1 [CCT251545]
Result: > 10 µM

Query: Quick one: IC50 of CN1CCN(C(=O)c2ccc3cc(CCNc4ncnc5ccc(C#N)cc45)ccc3c2)CC1 [Senexin B, reference compound] ?
Result: > 10 µM

Query: Looking for the measured IC50 of Cc1c(Br)c(Br)c2c3c1nc(N1CCNCC1)n3CCC2.Cl [SEL120-34A, reference compound] , can you help?
Result: 2.7 µM

###

Exercise: for every item that follows, state its recorded IC50.

Query: Query IC50 on CDK9_CycT1 (Homo sapiens) for CN1CCN(C(=O)c2ccc3cc(CCNc4ncnc5ccc(C#N)cc45)ccc3c2)CC1 [Senexin B, reference compound]
Sequence (P50750 whole entry): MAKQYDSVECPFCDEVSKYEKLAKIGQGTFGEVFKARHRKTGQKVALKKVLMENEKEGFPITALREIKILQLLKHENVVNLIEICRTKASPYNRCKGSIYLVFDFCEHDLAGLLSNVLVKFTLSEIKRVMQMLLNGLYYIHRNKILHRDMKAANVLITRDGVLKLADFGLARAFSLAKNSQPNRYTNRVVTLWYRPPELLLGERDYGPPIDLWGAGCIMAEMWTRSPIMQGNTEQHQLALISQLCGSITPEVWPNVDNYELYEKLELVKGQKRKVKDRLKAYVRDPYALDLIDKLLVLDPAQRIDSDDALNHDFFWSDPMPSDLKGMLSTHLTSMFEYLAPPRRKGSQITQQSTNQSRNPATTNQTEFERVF
Sequence (O60563 whole entry partner): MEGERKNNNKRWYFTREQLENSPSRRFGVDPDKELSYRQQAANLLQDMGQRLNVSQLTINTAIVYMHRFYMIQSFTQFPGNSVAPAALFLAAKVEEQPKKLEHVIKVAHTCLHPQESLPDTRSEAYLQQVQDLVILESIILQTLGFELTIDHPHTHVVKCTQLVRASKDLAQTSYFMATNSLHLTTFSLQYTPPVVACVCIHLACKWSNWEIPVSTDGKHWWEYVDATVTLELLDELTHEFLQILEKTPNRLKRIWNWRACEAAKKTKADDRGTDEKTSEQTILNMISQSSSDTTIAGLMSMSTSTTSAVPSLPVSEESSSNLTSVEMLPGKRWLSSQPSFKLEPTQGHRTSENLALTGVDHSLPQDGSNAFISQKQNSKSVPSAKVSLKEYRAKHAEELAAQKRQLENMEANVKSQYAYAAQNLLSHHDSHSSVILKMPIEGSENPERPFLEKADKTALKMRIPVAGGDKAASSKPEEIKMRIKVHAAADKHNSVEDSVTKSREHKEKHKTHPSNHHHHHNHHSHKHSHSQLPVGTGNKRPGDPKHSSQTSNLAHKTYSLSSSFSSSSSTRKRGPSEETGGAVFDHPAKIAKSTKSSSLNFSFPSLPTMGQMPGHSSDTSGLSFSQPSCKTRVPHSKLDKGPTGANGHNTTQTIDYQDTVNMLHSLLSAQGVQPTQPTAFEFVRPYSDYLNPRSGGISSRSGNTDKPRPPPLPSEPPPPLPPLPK
Result: 9.43 µM

Query: CDK9_CycT1 (Homo sapiens) / IC50 / Cc1n[nH]c2ncc(C(=O)N3CCC[C@H]3c3ccc(Cl)cc3)cc12 [MSC2530818] : value?
Result: > 10 µM

Query: What value of IC50 on CDK9_CycT1 (Homo sapiens) does Cn1cc(-c2ccc(-c3cncc(Cl)c3N3CCC4(CCNC4=O)CC3)cc2)cn1 [CCT251545] have?
Result: 6.07 µM

Query: Observed IC50 on CDK9_CycT1 (Homo sapiens) for Cc1c(Br)c(Br)c2c3c1nc(N1CCNCC1)n3CCC2.Cl [SEL120-34A, reference compound] , please.
Result: 0.957 µM

Query: Give CDK9_CycT1 (Homo sapiens) IC50 for Cn1ncc2cc(-c3cnc(N)c(Cl)c3N3CCC4(CCNC4=O)CC3)ccc21 [CCT251921]
Result: > 10 µM

###

biological target: CDK3_CycC (Homo sapiens); construct: purchased Reaction Biology; test: Radiometric protein kinase assay (33PanQinase), CDK3_CycC; format: biochemical; conditions: highest assay concentration 1.00E-05 M; read-out: IC50
Sequence (Q00526 whole entry, one chain of several): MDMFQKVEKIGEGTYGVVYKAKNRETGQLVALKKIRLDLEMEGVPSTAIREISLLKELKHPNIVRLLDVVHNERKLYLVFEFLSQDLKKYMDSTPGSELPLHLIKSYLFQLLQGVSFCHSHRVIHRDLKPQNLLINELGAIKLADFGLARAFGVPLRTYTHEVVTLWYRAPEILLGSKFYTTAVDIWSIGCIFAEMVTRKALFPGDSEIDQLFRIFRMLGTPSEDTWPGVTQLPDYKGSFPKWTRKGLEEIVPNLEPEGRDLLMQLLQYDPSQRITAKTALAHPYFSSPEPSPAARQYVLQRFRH
result_type: pIC50
In simple prose, pIC50 is minus the logarithm base ten of a concentration in moles per litre.

Query: What does the data say about its pIC50? Entry: Cc1c(Br)c(Br)c2c3c1nc(N1CCNCC1)n3CCC2.Cl [SEL120-34A, reference compound]
Result: 5.32

###

Would you kindly list Hill Slope for each of these compounds?
biological target: CDK13_CycK (Homo sapiens, UniProt Q14004); construct: purchased Reaction Biology; experiment: Radiometric protein kinase assay (33PanQinase), CDK13_CycK; type: biochemical; details: slope of the IC50 fit
Write the number on its own, no unit after it.

Query: What measured Hill Slope goes with Cn1ncc2cc(-c3cnc(N)c(Cl)c3N3CCC4(CCNC4=O)CC3)ccc21 [CCT251921] ?
Result: 0.03

Query: GET /values?readout=Hill Slope&item= Cc1c(Br)c(Br)c2c3c1nc(N1CCNCC1)n3CCC2.Cl [SEL120-34A, reference compound]
Result: -0.51

Query: # get_value(readout='Hill Slope', item= Cc1n[nH]c2ncc(C(=O)N3CCC[C@H]3c3ccc(Cl)cc3)cc12 [MSC2530818] )
Result: -0.19

Query: Given Cn1cc(-c2ccc(-c3cncc(Cl)c3N3CCC4(CCNC4=O)CC3)cc2)cn1 [CCT251545] , state its recorded Hill Slope.
Result: 0.15

Query: Which measured Hill Slope value corresponds to CN1CCN(C(=O)c2ccc3cc(CCNc4ncnc5ccc(C#N)cc45)ccc3c2)CC1 [Senexin B, reference compound] ?
Result: -0.12

###

biological target: CDK7_CycH_MAT1 (Homo sapiens); construct: purchased Reaction Biology; assay: Radiometric protein kinase assay (33PanQinase), CDK7_CycH_MAT1; assay type: biochemical; conditions: slope of the IC50 fit
Label scheme for Hill Slope: lower than -0.6 is class 0, -0.6 and above is class 1.

Query: Say whether Cc1c(Br)c(Br)c2c3c1nc(N1CCNCC1)n3CCC2.Cl [SEL120-34A, reference compound] shows Hill Slope of -0.6 or more.
Result: class 0

Query: Please check the record Cn1ncc2cc(-c3cnc(N)c(Cl)c3N3CCC4(CCNC4=O)CC3)ccc21 [CCT251921] and state if its Hill Slope is at or above -0.6.
Result: class 1

Query: Reported Hill Slope at or above -0.6? CN1CCN(C(=O)c2ccc3cc(CCNc4ncnc5ccc(C#N)cc45)ccc3c2)CC1 [Senexin B, reference compound]
Result: class 1
